Target: T1, ZFP SBS#281 (synthetic)
T1 chain: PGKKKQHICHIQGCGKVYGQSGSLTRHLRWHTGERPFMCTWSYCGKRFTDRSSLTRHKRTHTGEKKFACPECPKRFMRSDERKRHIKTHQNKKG
Experiment: EMSA
Settings: tags: MBP fusion
Measurement type: Kd (nM)

| Binder | Measurement type | Unit of measure | Assay result |
| --- | --- | --- | --- |
| GCGGCCGCG (dsDNA) DNA 1: GCGGCCGCG DNA 2: CGCGGCCGC | Kd | nM | 225 |

Data origin: patent US20030068675
